Provide the recorded OD for the entries that follow.
target-or-system: T1, human IL-1 Beta (human, UniProt P01584 117-269, biotinylated in the Fab, phage and competition ELISAs)
T1 construct: also called biot-IL-1 Beta; biotinylated IL-1 Beta
T1 sequence (P01584 117-269 limits assumed): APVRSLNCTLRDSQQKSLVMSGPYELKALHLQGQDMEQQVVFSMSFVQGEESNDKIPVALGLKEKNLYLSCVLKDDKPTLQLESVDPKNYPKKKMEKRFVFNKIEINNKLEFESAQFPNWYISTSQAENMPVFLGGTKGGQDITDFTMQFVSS
method-summary: competition ELISA, periplasmic Fab extract; competitor: coated blocking mouse mAb; OD of biot-IL-1 Beta bound
Returns: string containing the number followed by the unit.

binder="Fab 1C3 (Fab, part only; not given: lambda light chain, V domains shown, not shown: a dimerising Fc or GST) VH: EVQLVESGGGLVQPGGSLRLSCAASGFTFSSYWMYWVRQAPGKGLEWVSAINTGGGRTYYADSVKGRFTISRDNAKNTLYLQMNSLKSEDTAVYYCAKGTSADGSSWYVPADPYDYWGQGTQVTVSS" endpoint_result="0.386 OD"
binder="Fab 1G1 (Fab, part only; not given: lambda light chain, V domains shown, not shown: a dimerising Fc or GST) VH: EVQLVQSGAELRNPGASVKVSCKASGYTFTSYYTDWVRQAPGQGLEWMGRIDPEDGDTKYAQKFQGRVTFTADTSTSTAYVELTSLRSEDTAVYYCLRSGAYELDYWGQGTQVTVSS" endpoint_result="0.498 OD"
binder="Fab 1A1 (Fab, part only; not given: lambda light chain, V domains shown, not shown: a dimerising Fc or GST) VH: EVQLVESGGGLVQPGGSLRLSCAASGFTFDDYAMSWVRQAPGKGLEWVSTISWNGGATYYAESMKGRFTISRDNAKNTLYLQMNSLKSEDTAVYYCAKPYYSDYVGVEYDYWGQGTQVTVSS" endpoint_result="0.205 OD"

Here is another binder to look at.
GET /value?item= Fab 1B3 (Fab, part only; not given: lambda light chain, V domains shown, not shown: a dimerising Fc or GST) VH: EVQLVQSGAELRNPGASVKVSCKASGYTFTSYYIDWVRQAPGQGLEWMGRIDPEDGGTKYAQKFQGRVTFTADTSTSTAYVELSSLRSEDTAVYYCARSGRYELDYWGQGTQVTVSS &field=OD returns 0.444 OD
